The entries below come with measured inhibition at 0.01 µM values attached.
- target: human amnionic whole cell cyclooxygenase-2 (WISH cells) (Homo sapiens)
- Construct: endogenous in cells; host or cells: human amnionic WISH cells, induced with IL-1beta
- Sequence (P35354 18-604): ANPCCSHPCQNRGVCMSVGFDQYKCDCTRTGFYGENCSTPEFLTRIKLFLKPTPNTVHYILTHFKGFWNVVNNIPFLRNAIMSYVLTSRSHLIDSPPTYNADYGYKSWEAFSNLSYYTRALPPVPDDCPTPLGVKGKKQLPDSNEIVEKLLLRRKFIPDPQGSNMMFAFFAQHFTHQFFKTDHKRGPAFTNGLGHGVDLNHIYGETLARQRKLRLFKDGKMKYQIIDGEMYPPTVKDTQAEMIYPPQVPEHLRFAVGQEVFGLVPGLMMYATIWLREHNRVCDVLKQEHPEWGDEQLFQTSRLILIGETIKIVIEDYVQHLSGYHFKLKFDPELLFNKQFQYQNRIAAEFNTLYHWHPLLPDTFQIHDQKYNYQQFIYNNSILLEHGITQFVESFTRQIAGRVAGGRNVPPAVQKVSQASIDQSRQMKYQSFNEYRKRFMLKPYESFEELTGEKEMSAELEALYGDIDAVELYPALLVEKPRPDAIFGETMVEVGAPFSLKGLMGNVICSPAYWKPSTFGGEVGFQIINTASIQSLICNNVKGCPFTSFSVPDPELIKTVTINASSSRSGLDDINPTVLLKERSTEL
- measurement_protocol: IL-1β induced PGE2 production in WISH cells
- Assay type: cell-based
- recorded_conditions: 0.01 μM; read-out: Wish % Inhib. at Dose
reported_property: inhibition at 0.01 µM (%)

[[record]]
compound = "C/C(=C\\Cn1ncc(-c2ccc(S(N)(=O)=O)cc2)c(-c2ccc(F)cc2)c1=O)C(F)(F)F [Example 154]"
target = "human amnionic whole cell cyclooxygenase-2 (WISH cells) (Homo sapiens)"
reported = 69

[[record]]
compound = "CC(C)Nc1c(-c2ccc(S(C)(=O)=O)cc2)cnn(CC(F)(F)F)c1=O [Example 86]"
target = "human amnionic whole cell cyclooxygenase-2 (WISH cells) (Homo sapiens)"
reported = 47

[[record]]
compound = "CS(=O)(=O)c1ccc(-c2cnn(Cc3ccccc3)c(=O)c2-c2cccc([N+](=O)[O-])c2)cc1 [Example 321]"
target = "human amnionic whole cell cyclooxygenase-2 (WISH cells) (Homo sapiens)"
reported = 50

[[record]]
compound = "CS(=O)(=O)c1ccc(-c2cnn(Cc3ccccc3)c(=O)c2-c2ccc(Cl)cc2)cc1 [Example 53]"
target = "human amnionic whole cell cyclooxygenase-2 (WISH cells) (Homo sapiens)"
reported = 44

[[record]]
compound = "CS(=O)(=O)c1ccc(-c2cnn(C3C4CC5CC(C4)CC3C5)c(=O)c2-c2ccc(F)cc2)cc1 (stereo not shown) [Example 132]"
target = "human amnionic whole cell cyclooxygenase-2 (WISH cells) (Homo sapiens)"
reported = 36

[[record]]
compound = "CS(=O)(=O)c1ccc(-c2cnn(-c3cccc(Cl)c3)c(=O)c2C2CCCCC2)cc1 [Example 368]"
target = "human amnionic whole cell cyclooxygenase-2 (WISH cells) (Homo sapiens)"
reported = 33

[[record]]
compound = "CC(C)CCc1c(-c2ccc(S(N)(=O)=O)cc2)cnn(-c2ccc(F)c(F)c2)c1=O [Example 404]"
target = "human amnionic whole cell cyclooxygenase-2 (WISH cells) (Homo sapiens)"
reported = 58

